Data origin, for the record: PubChem BioAssay AID1963827

Please provide measured viability, T/C for the entries that follow.
- Tested on: 994946-033-R-J1-PDC complex spheroid viability
- experiment: Anticancer human tumor 994946-033-R-J1-PDC patient-derived melanoma cell line growth inhibition [POLQ]
- reported-conditions: second compound 0.316 µM; first compound 0.1 µM; stronger effect = lower value
Record the value in %, omitting the unit from your answer.

Fill in: viability, T/C of O=c1[nH]cc(F)c(=O)[nH]1 + Nc1ccc(C#CCN(C(=O)Cc2ncc(C(F)(F)F)cc2C(F)(F)F)c2ccc(F)cc2)nn1 is ___ 81.1

I have this molecule here, CC1COCCN1c1cc(C2(S(C)(=N)=O)CC2)nc(-c2ccnc3[nH]ccc23)n1 (stereo not given) + Nc1ccc(C#CCN(C(=O)Cc2ncc(C(F)(F)F)cc2C(F)(F)F)c2ccc(F)cc2)nn1 , and I need its recorded viability, T/C. 86.5

Using the record for C=CCn1c(=O)c2cnc(Nc3ccc(N4CCN(C)CC4)cc3)nc2n1-c1cccc(C(C)(C)O)n1 + Nc1ccc(C#CCN(C(=O)Cc2ncc(C(F)(F)F)cc2C(F)(F)F)c2ccc(F)cc2)nn1 , report its viability, T/C. 81.7

Suppose we examine the molecule CCCS(=O)(=O)Nc1ccc(F)c(C(=O)c2c[nH]c3ncc(-c4ccc(Cl)cc4)cc23)c1F + Cc1cccc(N(C)C(=O)C2C(O)CCN2c2nc(C)cc(C(F)(F)F)c2C#N)c1 ; what viability, T/C value has been reported? 101

So what's the measured viability, T/C for this one? CC1COCCN1c1cc(-c2ccnn2C)c2ccnc(-c3ccn[nH]3)c2n1 (stereo not given) + COC1C(OC(N)=O)C(O)C(Oc2ccc3c(O)c(NC(=O)c4ccc(O)c(CC=C(C)C)c4)c(=O)oc3c2C)OC1(C)C 60.4

###

- System: 994946-033-R-J1-PDC complex spheroid viability
- experiment: Anticancer human tumor 994946-033-R-J1-PDC cell line growth inhibition [POLQ]; active = viability on the fitted dose curve at most 10% of control; inactive = the rest;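 note: spheroids exposed to drugs for 7 days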
- reported-conditions: second compound 10 µM; first compound 10 µM
// classify into active, inactive

For COc1cc(C2c3cc4c(cc3C(OC3OC5COC(C)OC5C(O)C3O)C3COC(=O)C23)OCO4)cc(OC)c1O (stereo not given) + COC1C(OC(N)=O)C(O)C(Oc2ccc3c(O)c(NC(=O)c4ccc(O)c(CC=C(C)C)c4)c(=O)oc3c2C)OC1(C)C , what call appears in the results of this test? active

What classification did COc1ccc([C@@H](O)c2cc(-c3ncnc4cc(N5CCOCC5)ccc34)c(F)cc2Cl)nn1 + Nc1ccc(C#CCN(C(=O)Cc2ncc(C(F)(F)F)cc2C(F)(F)F)c2ccc(F)cc2)nn1 end up with in this test? inactive

Any idea what this test logged for C=CC(=O)N1CCN(c2nc(=O)n(-c3c(C)ccnc3C(C)C)c3nc(-c4c(O)cccc4F)c(F)cc23)C(C)C1 (stereo not given) + Cc1cccc(N(C)C(=O)C2C(O)CCN2c2nc(C)cc(C(F)(F)F)c2C#N)c1 ? inactive

Returns: the outcome recorded for CC1COCCN1c1cc(C2(O)CC3CCC(C2)O3)c2cnn(-c3ccn[nH]3)c2n1 (stereo not given) + COC1C(OC(N)=O)C(O)C(Oc2ccc3c(O)c(NC(=O)c4ccc(O)c(CC=C(C)C)c4)c(=O)oc3c2C)OC1(C)C in this assay. active

Record lookup: outcome of this test for COc1ccc([C@@H](O)c2cc(-c3ncnc4cc(N5CCOCC5)ccc34)c(F)cc2Cl)nn1 + COC1C(OC(N)=O)C(O)C(Oc2ccc3c(O)c(NC(=O)c4ccc(O)c(CC=C(C)C)c4)c(=O)oc3c2C)OC1(C)C ? inactive

###

- Tested on: 994946-033-R-J1-PDC complex spheroid viability
- experiment: Anticancer human tumor 994946-033-R-J1-PDC cell line growth inhibition [POLQ];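 note: spheroids exposed to drugs for 7 days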
- reported-conditions: curve of first compound; second compound 0.1 µM
pIC50: −log10 of the molar value.
Please provide measured pIC50 for the entries that follow.

What pIC50 value was documented for this compound, CC1COCCN1c1cc(C2(O)CC3CCC(C2)O3)c2cnn(-c3ccn[nH]3)c2n1 (stereo not drawn) + Nc1ccc(C#CCN(C(=O)Cc2ncc(C(F)(F)F)cc2C(F)(F)F)c2ccc(F)cc2)nn1 ? > 7.50

# input compound: CNCc1ccc(-c2[nH]c3cc(F)cc4c3c2CCNC4=O)cc1 + Nc1ccc(C#CCN(C(=O)Cc2ncc(C(F)(F)F)cc2C(F)(F)F)c2ccc(F)cc2)nn1 ; wanted: its pIC50 < 5.00

Would you mind telling me what pIC50 value was observed for COc1cc2cc(C(=O)CCC(=O)O)sc2cc1OC + COC1C(OC(N)=O)C(O)C(Oc2ccc3c(O)c(NC(=O)c4ccc(O)c(CC=C(C)C)c4)c(=O)oc3c2C)OC1(C)C ? < 5.00

###

- Tested on: 994946-033-R-J1-PDC complex spheroid viability
- experiment: Anticancer human tumor 994946-033-R-J1-PDC cell line growth inhibition [POLQ];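 note: spheroids exposed to drugs for 7 days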;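 for viability, T/C: 100% = DMSO vehicle treated spheroids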
- reported-conditions: second compound 10 µM; first compound 10 µM; stronger effect = lower value
Please go through the items and note down their viability, T/C.

Fill blank: measured viability, T/C of the molecule COc1cc2cc(C(=O)CCC(=O)O)sc2cc1OC + Nc1ccc(C#CCN(C(=O)Cc2ncc(C(F)(F)F)cc2C(F)(F)F)c2ccc(F)cc2)nn1 is ____. 78.8%

Give its viability, T/C value. Item: CC1COCCN1c1cc(C2(O)CC3CCC(C2)O3)c2cnn(-c3ccn[nH]3)c2n1 (stereo not drawn) + Nc1ccc(C#CCN(C(=O)Cc2ncc(C(F)(F)F)cc2C(F)(F)F)c2ccc(F)cc2)nn1 5.15%

# query: viability, T/C of entry CCc1cc2c(N3CCc4c(cc(Cn5ccnc5)cc4-c4cn(C)nc4C(F)(F)F)C3=O)ccnc2c(OC)n1 + Nc1ccc(C#CCN(C(=O)Cc2ncc(C(F)(F)F)cc2C(F)(F)F)c2ccc(F)cc2)nn1 70.8%

###

- System: 994946-033-R-J1-PDC complex spheroid viability
- experiment: Anticancer human tumor 994946-033-R-J1-PDC cell line growth inhibition [POLQ];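 note: spheroids exposed to drugs for 7 days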;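 for viability, T/C: 100% = DMSO vehicle treated spheroids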
- reported-conditions: second compound 3.16 µM; first compound 0.0316 µM; stronger effect = lower value
outcome-measure: viability, T/C

Item C=CCn1c(=O)c2cnc(Nc3ccc(N4CCN(C)CC4)cc3)nc2n1-c1cccc(C(C)(C)O)n1 + Cc1cccc(N(C)C(=O)C2C(O)CCN2c2nc(C)cc(C(F)(F)F)c2C#N)c1 with 994946-033-R-J1-PDC complex spheroid viability - viability, T/C? 111%

Lab note: need viability, T/C for COc1cccc2c1C(=O)c1c(O)c3c(c(O)c1C2=O)CC(O)(C(=O)CO)CC3OC1CC(N)C(O)C(C)O1 (centres undefined) + COC1C(OC(N)=O)C(O)C(Oc2ccc3c(O)c(NC(=O)c4ccc(O)c(CC=C(C)C)c4)c(=O)oc3c2C)OC1(C)C on 994946-033-R-J1-PDC complex spheroid viability, anyone have it? 29.7%

Could you share what viability, T/C was measured for COc1cccc(OCCCN)c1-c1cc(Nc2cnc(C#N)cn2)n[nH]1 + COC1C(OC(N)=O)C(O)C(Oc2ccc3c(O)c(NC(=O)c4ccc(O)c(CC=C(C)C)c4)c(=O)oc3c2C)OC1(C)C , tested on 994946-033-R-J1-PDC complex spheroid viability? 38.7%

GET /values?readout=viability, T/C&system=994946-033-R-J1-PDC complex spheroid viability&item= C=CCn1c(=O)c2cnc(Nc3ccc(N4CCN(C)CC4)cc3)nc2n1-c1cccc(C(C)(C)O)n1 + Nc1ccc(C#CCN(C(=O)Cc2ncc(C(F)(F)F)cc2C(F)(F)F)c2ccc(F)cc2)nn1 120%

###

- System: 994946-033-R-J1-PDC complex spheroid viability
- experiment: Anticancer human tumor 994946-033-R-J1-PDC cell line growth inhibition [POLQ]; active = viability on the fitted dose curve at most 10% of control; inactive = the rest;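 note: spheroids exposed to drugs for 7 days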
- reported-conditions: second compound 10 µM; first compound 0.316 µM
- Description: Multicellular complex tumor spheroid response to Polymerase (POL) inhibitors (novobiocin, ART-558, RP6685) in combination with a variety of drugs and investigational agents in selected tumor cell lines The POL inhibitors (novobiocin, ART-558, and RP6685) were evaluated both individually and in combination with standard of care and investigational anticancer small molecules within a complex spheroid model of solid tumors. . […]
// one of Yes = active, No = inactive, no free text

Which outcome was assigned to C#Cc1c(F)ccc2cc(O)cc(-c3ncc4c(N5CC6CCC(C5)N6)nc(OCC56CCCN5CC(F)C6)nc4c3F)c12 (configuration not stated) + COC1C(OC(N)=O)C(O)C(Oc2ccc3c(O)c(NC(=O)c4ccc(O)c(CC=C(C)C)c4)c(=O)oc3c2C)OC1(C)C in this test? No

# outcome recorded in this test, key = C#Cc1c(F)ccc2cc(O)cc(-c3ncc4c(N5CC6CCC(C5)N6)nc(OCC56CCCN5CC(F)C6)nc4c3F)c12 (configuration not stated) + Cc1cccc(N(C)C(=O)C2C(O)CCN2c2nc(C)cc(C(F)(F)F)c2C#N)c1 No

Status in this test for CC(C)n1c(=O)n(C)c2cnc3cc(F)c(-c4ccc(OCCCN5CCCCC5)nc4)cc3c21 + Cc1cccc(N(C)C(=O)C2C(O)CCN2c2nc(C)cc(C(F)(F)F)c2C#N)c1 ? No

Per the assay record, what outcome was assigned to COc1cc2cc(C(=O)CCC(=O)O)sc2cc1OC + Nc1ccc(C#CCN(C(=O)Cc2ncc(C(F)(F)F)cc2C(F)(F)F)c2ccc(F)cc2)nn1 ? No

Record request — test call for CC1COCCN1c1cc(C2(S(C)(=N)=O)CC2)nc(-c2ccnc3[nH]ccc23)n1 (configuration not stated) + COC1C(OC(N)=O)C(O)C(Oc2ccc3c(O)c(NC(=O)c4ccc(O)c(CC=C(C)C)c4)c(=O)oc3c2C)OC1(C)C No

Dear all, I need the recorded test outcome for CCCS(=O)(=O)Nc1ccc(F)c(C(=O)c2c[nH]c3ncc(-c4ccc(Cl)cc4)cc23)c1F + COC1C(OC(N)=O)C(O)C(Oc2ccc3c(O)c(NC(=O)c4ccc(O)c(CC=C(C)C)c4)c(=O)oc3c2C)OC1(C)C , thank you. No

// param item: CCCS(=O)(=O)Nc1ccc(F)c(C(=O)c2c[nH]c3ncc(-c4ccc(Cl)cc4)cc23)c1F + Nc1ccc(C#CCN(C(=O)Cc2ncc(C(F)(F)F)cc2C(F)(F)F)c2ccc(F)cc2)nn1 ; yields the recorded call No

Status in this test for O=c1[nH]cc(F)c(=O)[nH]1 + Cc1cccc(N(C)C(=O)C2C(O)CCN2c2nc(C)cc(C(F)(F)F)c2C#N)c1 ? No

Hey, what did the test say about CC1COCCN1c1cc(C2(S(C)(=N)=O)CC2)nc(-c2ccnc3[nH]ccc23)n1 (configuration not stated) + Cc1cccc(N(C)C(=O)C2C(O)CCN2c2nc(C)cc(C(F)(F)F)c2C#N)c1 ? No

Could you kindly confirm the outcome this assay logged for O=C(c1cc(Cc2n[nH]c(=O)c3ccccc23)ccc1F)N1CCN(C(=O)C2CC2)CC1 + COC1C(OC(N)=O)C(O)C(Oc2ccc3c(O)c(NC(=O)c4ccc(O)c(CC=C(C)C)c4)c(=O)oc3c2C)OC1(C)C ? No

Any idea what this test logged for CCc1cc2c(N3CCc4c(cc(Cn5ccnc5)cc4-c4cn(C)nc4C(F)(F)F)C3=O)cc(C)nc2c(OC)n1 + COC1C(OC(N)=O)C(O)C(Oc2ccc3c(O)c(NC(=O)c4ccc(O)c(CC=C(C)C)c4)c(=O)oc3c2C)OC1(C)C ? No

Tell me the assay call for COc1cccc2c1C(=O)c1c(O)c3c(c(O)c1C2=O)CC(O)(C(=O)CO)CC3OC1CC(N)C(O)C(C)O1 (configuration not stated) + COC1C(OC(N)=O)C(O)C(Oc2ccc3c(O)c(NC(=O)c4ccc(O)c(CC=C(C)C)c4)c(=O)oc3c2C)OC1(C)C please. Yes
